Reported IC50 values are given for each entry in this list.
biological target: Recombinant human CD38 (Homo sapiens, UniProt P28907); assay: Human CD38 hydrolase assay (fluorescence-based, ε-NAD substrate); conditions: recombinant human CD38 0.8 nM, 4 μM ε-NAD, 30 min preincubation at 25° C.
Sequence (P28907 whole entry): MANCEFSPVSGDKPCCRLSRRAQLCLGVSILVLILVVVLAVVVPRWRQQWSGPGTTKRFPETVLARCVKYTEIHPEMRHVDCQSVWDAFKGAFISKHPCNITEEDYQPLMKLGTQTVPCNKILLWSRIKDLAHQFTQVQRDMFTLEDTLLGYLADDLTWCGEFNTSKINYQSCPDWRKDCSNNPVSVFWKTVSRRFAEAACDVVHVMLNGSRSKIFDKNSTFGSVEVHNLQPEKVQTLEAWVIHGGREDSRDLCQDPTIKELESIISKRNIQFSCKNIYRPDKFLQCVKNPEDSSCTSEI
QUANTITY_MEASURED: IC50

{"columns": ["MOLECULE", "ASSAYED_SYSTEM", "RECORDED_VALUE"],
 "data": [
  ["O=C(N[C@H]1CC[C@H](NCC(F)F)CC1)c1cn2ncnc2c(-n2ccnc2)n1 [Example 52]", "Recombinant human CD38 (Homo sapiens, UniProt P28907)", "≤ 100 nM"],
  ["CC(C)(N[C@H]1CC[C@H](NC(=O)c2cn3ncnc3c(-n3ccnc3)n2)CC1)C(F)(F)F [Example 53]", "Recombinant human CD38 (Homo sapiens, UniProt P28907)", "≤ 1000 nM"],
  ["O=C(N[C@H]1CC[C@H](N2CCC(F)(F)C2)CC1)c1cn2nccc2c(-n2ccnc2)n1 [Example 34]", "Recombinant human CD38 (Homo sapiens, UniProt P28907)", "≤ 1000 nM"],
  ["O=C(N[C@H]1CC[C@H](NCC(F)(F)F)CC1)c1nc(-n2ccnc2)cc2nccn12 [Example 2]", "Recombinant human CD38 (Homo sapiens, UniProt P28907)", "≤ 40 nM"]
]}

---

assay: PK brain permeability after single oral gavage; type: in vivo, C57BL/6 mice; settings: male, C57BL/6, mouse, plasma, po, 10 mg/kg, mice, 10 mg/kg oral, 2 hours post dose; read-out: total plasma conc.
QUANTITY_MEASURED: concentration at 2 h (µM)

{"columns": ["COMPOUND", "RECORDED_VALUE"],
 "data": [
  ["O=C(N[C@H]1CC[C@H](N2CCC(F)(F)C2)CC1)c1cn2ccnc2c(-n2ccnc2)n1 [Example 41]", 10.6],
  ["O=C(N[C@H]1CC[C@H](N2CC(F)(F)C2)CC1)c1cn2ncnc2c(-n2ccnc2)n1 [Example 45]", 9.34],
  ["O=C(N[C@H]1CC[C@H](NCC(F)(F)F)CC1)c1cn2ncnc2c(-n2ccnc2)n1 [Example 20]", 17.9],
  ["O=C(N[C@H]1CC[C@H](N2CCC(F)(F)C2)CC1)c1nc(-n2ccnc2)nn2cccc12 [Example 12]", 12.6]
]}

---

assay: PK brain permeability after single oral gavage; type: in vivo, C57BL/6 mice; details: male, C57BL/6, mouse, brain, po, 10 mg/kg, mice, 10 mg/kg oral, 2 hours post dose; total corrected for unbound fraction in brain; read-out: free brain conc.
QUANTITY_MEASURED: concentration at 2 h (nM)

{"columns": ["TEST_SMILES", "RECORDED_VALUE"],
 "data": [
  ["O=C(N[C@H]1CC[C@H](N2CCC(F)(F)C2)CC1)c1nc(-n2ccnc2)nn2cccc12", 575],
  ["O=C(N[C@H]1CC[C@H](NCC(F)(F)F)CC1)c1cn2ccnc2c(-n2ccnc2)n1", 218],
  ["O=C(N[C@H]1CC[C@H](N2CCC(F)(F)C2)CC1)c1cn2ccnc2c(-n2ccnc2)n1", 241]
]}

---

Reported concentration at 2 h values are given for each entry in this list.
experiment: PK brain permeability after single oral gavage; format: in vivo, C57BL/6 mice; details: male, C57BL/6, mouse, plasma, po, 10 mg/kg, mice, 10 mg/kg oral, 2 hours post dose; total corrected for unbound fraction in plasma; read-out: free plasma conc.

{"columns": ["MOLECULE", "concentration at 2 h [nM]"],
 "data": [
  ["O=C(N[C@H]1CC[C@H](N2CC(F)(F)C2)CC1)c1cn2ncnc2c(-n2ccnc2)n1 [Example 45]", 3490],
  ["O=C(N[C@H]1CC[C@H](N2CC[C@H](F)C2)CC1)c1nc(-n2ccnc2)nn2cccc12 [Example 13]", 809],
  ["O=C(N[C@H]1CC[C@H](N2CCC(F)(F)C2)CC1)c1cn2ncnc2c(-n2ccnc2)n1 [Example 48]", 1980]
]}
